Give relative viability for every item shown.
Tested on: HARA
Assay: relative viability (nuclei count vs DMSO), 5 days (fraction); higher = more cells survive
Conditions: first compound 0.1581 µM
No unit in the answer, please; the number alone is enough.

# lookup: relative viability of Nc1ccn([C@@H]2O[C@H](CO)[C@@H](O)[C@@H]2O)c(=O)n1 [Cytarabine] + COc1cc2c(Oc3ccc(NC(=O)C4(C(=O)Nc5ccc(F)cc5)CC4)cc3F)ccnc2cc1OCCCN1CCOCC1 [Foretinib] (partner 0.25 µM)
0.107

# lookup: relative viability of COc1cc2nccc(Oc3ccc(NC(=O)Nc4cc(C)on4)c(Cl)c3)c2cc1OC [Tivozanib] + CC(=O)Nc1cccc(-n2c(=O)n(C3CC3)c(=O)c3c(Nc4ccc(I)cc4F)n(C)c(=O)c(C)c32)c1 [Trametinib] (partner 0.02 µM)
1.06

# lookup: relative viability of Nc1ccn([C@@H]2O[C@H](CO)[C@@H](O)[C@@H]2O)c(=O)n1 [Cytarabine] + C[C@]1(O)C[C@@H](c2nc(-c3ccc4ccc(-c5ccccc5)nc4c3)c3c(N)nccn32)C1 [Linsitinib] (partner 1 µM)
0.174

# lookup: relative viability of Nc1ccn([C@@H]2O[C@H](CO)[C@@H](O)[C@@H]2O)c(=O)n1 [Cytarabine] + CC(=O)Nc1cccc(-n2c(=O)n(C3CC3)c(=O)c3c(Nc4ccc(I)cc4F)n(C)c(=O)c(C)c32)c1 [Trametinib] (partner 0.02 µM)
0.204

# lookup: relative viability of COc1cc2nccc(Oc3ccc(NC(=O)Nc4cc(C)on4)c(Cl)c3)c2cc1OC [Tivozanib] + Cc1nc(Nc2ncc(C(=O)Nc3c(C)cccc3Cl)s2)cc(N2CCN(CCO)CC2)n1 [Dasatinib] (partner 0.075 µM)
0.19

# lookup: relative viability of Nc1ccn([C@@H]2O[C@H](CO)[C@@H](O)[C@@H]2O)c(=O)n1 [Cytarabine] + Cc1cc(Nc2cc(N3CCN(C)CC3)nc(Sc3ccc(NC(=O)C4CC4)cc3)n2)n[nH]1 [Tozasertib] (partner 0.1 µM)
0.0658

# lookup: relative viability of Nc1ccn([C@@H]2O[C@H](CO)[C@@H](O)[C@@H]2O)c(=O)n1 [Cytarabine] + COc1cccc2cc(-c3nc([C@H]4CC[C@H](C(=O)O)CC4)n4ncnc(N)c34)[nH]c12 [OSI-027] (partner 0.5 µM)
0.107
